Test system: Hek293 empty vector
Assay: In vitro cell viability (CellTiter-Glo), Hek293 empty vector
Format: cell-based
Details: Homo sapiens; cell viability, Hek293 empty vector; read-out: IC50
OBSERVABLE: IC50

[[record]]
input_smiles = "Cc1nc(N[C@H]2C[C@H](Oc3cc(F)c(F)c(F)c3)C2)nc2c1N(C)C(=O)[C@H](C)N2C"
observable = "IC50"
result = "15 µM"


---

Test system: HepG2 XBP1(u)-Luc cells
Assay: HepG2 XBP1 reporter assay
Type: cell-based
Conditions: 6 h
IC50 overview
OBSERVABLE: IC50

[[record]]
molecule = "Cc1nc(N[C@H]2CC[C@H](Oc3ccc(C(F)(F)F)nc3)C2)nc2c1NC(=O)[C@H](C)N2C (single isomer, unassigned)"
observable = "IC50"
result = "600 to 2000 nM"

[[record]]
molecule = "Cc1nc(N[C@H]2C[C@@H](COc3cnc(C(F)(F)F)nc3)C2)nc2c1NC(=O)[C@H](C(C)C)N2C"
observable = "IC50"
result = "< 600 nM"

[[record]]
molecule = "Cc1nc(NCc2cnn(Cc3ccc(C(F)(F)F)nc3)c2)nc2c1NC(=O)[C@H](C)N2C"
observable = "IC50"
result = "600 to 2000 nM"

[[record]]
molecule = "Cc1nc(NCc2cnn(Cc3ccc(F)nc3)c2)nc2c1NC(=O)[C@H](C1CC1)N2C"
observable = "IC50"
result = "< 600 nM"


---

Tested on: β-catenin-TCF-mediated reporter transcription activity in Colo 205 cells
Test: Colo 205 reporter assay (TCF/LEF luciferase)
Assay type: cell-based
Settings: Colo 205 TCF/LEF luciferase reporter, five hours after addition of compound; read-out: TCF reporter Colo205 IC50
pIC50: −log10 of the molar value.
OBSERVABLE: pIC50

[[record]]
compound = "CO[C@H](C)[C@H]1C(=O)Nc2c(C)nc(NCc3cnn(Cc4cc(C(F)(F)F)nn4C)c3)nc2N1C [Compound 656]"
result = "> 6.52"

[[record]]
compound = "Cc1nc(N[C@H]2CO[C@H](COc3cc(F)c(F)c(F)c3)C2)nc2c1NC(=O)[C@H](C)N2C [Compound 302]"
result = "5.30 to 6.00"

[[record]]
compound = "CCN1C(=O)[C@@](C)(CC)N(CC)c2nc(NCc3cnn(Cc4ccc(F)cc4)c3)ncc21 [Compound 234]"
result = "6.00 to 6.52"

[[record]]
compound = "Cc1nc(N[C@H]2CC[C@H](Oc3ccc(C(F)(F)F)nc3)C2)nc2c1NC(=O)[C@H](C)N2C (single isomer, unassigned) [Compound 376]"
result = "5.30 to 6.00"

[[record]]
compound = "COCC1(C)C(=O)Nc2c(C)nc(N[C@H]3C[C@H](Oc4cc(F)c(F)c(F)c4)C3)nc2N1C (relative stereo) [Compound 720]"
result = "6.00 to 6.52"

[[record]]
compound = "Cc1nc(N[C@H]2CO[C@H](COc3cc(F)c(F)c(F)c3)C2)nc2c1NC(=O)[C@H](C)N2C [Compound 301]"
result = "> 6.52"

[[record]]
compound = "Cc1nc(N[C@H]2C[C@H](Oc3ccc(F)cc3F)C2)nc2c1NC(=O)[C@H](C)N2C (relative stereo) [Compound 295]"
result = "> 6.52"

[[record]]
compound = "Cc1nc(N[C@H]2C[C@@H](COc3ccc(C(F)(F)F)nc3)C2)nc2c1NC(=O)[C@H](C(C)C)N2C (relative stereo) [Compound 551]"
result = "> 6.52"


---

Test system: β-catenin-TCF-mediated reporter transcription activity in Colo 205 cells
Experiment: Colo 205 reporter assay (TCF/LEF luciferase)
Type: cell-based
Conditions: Homo sapiens, COLO 205, 5 h, Colo 205 cells with stably transfected TCF/LEF luciferase reporter; five hours after addition of compound; read-out: TCF reporter Colo205
pIC50: −log10 of the molar value.
OBSERVABLE: pIC50

[[record]]
compound = "Cc1nc(N(Cc2cnn(Cc3ccc(C(F)(F)F)nc3)c2)C(=O)OC(C)OC(=O)C(C)C)nc2c1NC(=O)[C@H](C)N2C (some centres unmarked)"
system_name = "β-catenin-TCF-mediated reporter transcription activity in Colo 205 cells"
observable = "pIC50"
result = "> 6.52"

[[record]]
compound = "Cc1nc(N(Cc2cnn(Cc3ccc(C(F)(F)F)nc3)c2)C(=O)CN)nc2c1NC(=O)[C@H](C)N2C"
system_name = "β-catenin-TCF-mediated reporter transcription activity in Colo 205 cells"
observable = "pIC50"
result = "≤ 5.30"

[[record]]
compound = "Cc1nc(NCc2cnn(Cc3ccc(Cl)nc3)c2)nc2c1NC(=O)[C@H](C(C)C)N2C"
system_name = "β-catenin-TCF-mediated reporter transcription activity in Colo 205 cells"
observable = "pIC50"
result = "> 6.52"

[[record]]
compound = "Cc1nc(N(Cc2cnn(Cc3ccc(C(F)(F)F)nc3)c2)C(=O)NC2CCCCC2)nc2c1NC(=O)[C@H](C)N2C"
system_name = "β-catenin-TCF-mediated reporter transcription activity in Colo 205 cells"
observable = "pIC50"
result = "≤ 5.30"

[[record]]
compound = "Cc1nc(N(C)Cc2cnn(Cc3ccc(C(F)(F)F)nc3)c2)nc2c1NC(=O)[C@H](C)N2C"
system_name = "β-catenin-TCF-mediated reporter transcription activity in Colo 205 cells"
observable = "pIC50"
result = "≤ 5.30"

[[record]]
compound = "Cc1nc(NCc2cnn(Cc3ccc(C(F)(F)F)nc3)c2)nc2c1NC(=O)C1(CCC1)N2C"
system_name = "β-catenin-TCF-mediated reporter transcription activity in Colo 205 cells"
observable = "pIC50"
result = "> 6.52"

[[record]]
compound = "[2H]C([2H])([2H])N1c2nc(NCc3cnn(Cc4ccc(C(F)(F)F)nc4)c3)nc(C)c2NC(=O)[C@@H]1C"
system_name = "β-catenin-TCF-mediated reporter transcription activity in Colo 205 cells"
observable = "pIC50"
result = "> 6.52"

[[record]]
compound = "COC(=O)N(Cc1cnn(Cc2ccc(C(F)(F)F)nc2)c1)c1nc(C)c2c(n1)N(C)[C@@H](C)C(=O)N2"
system_name = "β-catenin-TCF-mediated reporter transcription activity in Colo 205 cells"
observable = "pIC50"
result = "≤ 5.30"

[[record]]
compound = "Cc1nc(N(Cc2cnn(Cc3ccc(C(F)(F)F)nc3)c2)C(=O)[C@@H](N)C(C)C)nc2c1NC(=O)[C@H](C)N2C"
system_name = "β-catenin-TCF-mediated reporter transcription activity in Colo 205 cells"
observable = "pIC50"
result = "≤ 5.30"

[[record]]
compound = "CC(=O)N(Cc1cnn(Cc2ccc(C(F)(F)F)nc2)c1)c1nc(C)c2c(n1)N(C)[C@@H](C)C(=O)N2"
system_name = "β-catenin-TCF-mediated reporter transcription activity in Colo 205 cells"
observable = "pIC50"
result = "≤ 5.30"

[[record]]
compound = "Cc1nc(NCc2cnn(Cc3cc(C(F)(F)F)nn3C)c2)nc2c1NC(=O)[C@H](C(C)C)N2C"
system_name = "β-catenin-TCF-mediated reporter transcription activity in Colo 205 cells"
observable = "pIC50"
result = "> 6.52"


---

Tested on: Hek293 WFS1 over-expressor
Assay: In vitro cell viability (CellTiter-Glo), Hek293 WFS1 over-expressor
Format: cell-based
Conditions: Homo sapiens, HEK293, Hek293 WFS1 over-expressing cells; read-out: Hek293 WFS1 viability
Here, each record is paired with measured IC50 data.
OBSERVABLE: IC50

[[record]]
compound = "Cc1nc(N[C@@H]2CC[C@@H](Oc3cc(F)c(F)c(F)c3)C2)nc2c1N(C)C(=O)[C@H](C)N2C [Compound 272]"
result = "< 60 nM"

[[record]]
compound = "Cc1nc(N[C@H]2C[C@H](Oc3cc(F)c(F)c(F)c3)C2)nc2c1N(C)C(=O)[C@H](C)N2C [Compound 253]"
result = "< 60 nM"

[[record]]
compound = "Cc1nc(NCc2cnn(Cc3cc(C(F)(F)F)nn3C)c2)nc2c1NC(=O)[C@H](C(C)C)N2C [Compound 397]"
result = "< 60 nM"

[[record]]
compound = "Cc1nc(N[C@H]2C[C@H](Sc3cc(F)c(F)c(F)c3)C2)nc2c1NC(=O)[C@H](C)N2C [Compound 329]"
result = "< 60 nM"

[[record]]
compound = "Cc1nc(N[C@H]2C[C@H](Oc3ccnc(C(F)(F)F)c3)C2)nc2c1NC(=O)[C@H](C)N2C [Compound 335]"
result = "< 60 nM"

[[record]]
compound = "Cc1nc(NCc2cnn(Cc3ccc(C(F)(F)F)nc3)c2)nc2c1NC(=O)[C@H](C1CC1)N2C [Compound 386]"
result = "< 60 nM"

[[record]]
compound = "Cc1nc(NCc2cnn([C@@H](C)c3ccc(C(F)(F)F)nc3)c2)nc2c1NC(=O)[C@H](C)N2C [Compound 174]"
result = "< 60 nM"

